Reference for the values: paper PMC4296562

Biological target: MurX (Mycobacterium tuberculosis)
Sequence (P9WMW7 whole entry): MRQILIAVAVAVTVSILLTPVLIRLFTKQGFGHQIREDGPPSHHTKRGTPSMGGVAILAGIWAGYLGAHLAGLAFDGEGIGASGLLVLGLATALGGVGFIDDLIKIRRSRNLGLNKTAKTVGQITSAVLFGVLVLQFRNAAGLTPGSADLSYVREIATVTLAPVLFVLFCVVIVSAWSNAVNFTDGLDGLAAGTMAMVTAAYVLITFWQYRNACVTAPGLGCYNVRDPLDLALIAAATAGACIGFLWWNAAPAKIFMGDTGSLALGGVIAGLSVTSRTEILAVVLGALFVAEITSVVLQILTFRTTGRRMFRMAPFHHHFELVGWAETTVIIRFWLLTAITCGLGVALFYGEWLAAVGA
Measurement kind: IC50 (nM)
Answers are plain numbers, in nM.

Problem: Reported IC50, molecule CC(C)=CCC/C(C)=C\COP(=O)(O)O [compound 6, neryl phosphate] : ____
Solution: 152
